- targetUnderTest: EcTrmL (Escherichia coli, UniProt P0AGJ7, R59E)
- Sequence (P0AGJ7 whole entry R59E): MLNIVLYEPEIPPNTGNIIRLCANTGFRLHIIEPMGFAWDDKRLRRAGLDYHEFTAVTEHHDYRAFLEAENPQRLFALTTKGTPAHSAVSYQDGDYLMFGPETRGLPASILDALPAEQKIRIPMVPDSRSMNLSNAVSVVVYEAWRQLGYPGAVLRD
- methodDescription: isothermal titration calorimetry, one-site model
resultType: pKd
Worth noting: pKd values are minus log10 of concentrations stated in mol/L.

Reported pKd of Nc1ncnc2c1ncn2[C@@H]1O[C@H](CSCC[C@H](N)C(=O)O)[C@@H](O)[C@H]1O : 4.57
